FYI, the data here is from the supplement of paper PMC6757056.

B1: library; a variant is named by its letters at N, in order (parent)
chain: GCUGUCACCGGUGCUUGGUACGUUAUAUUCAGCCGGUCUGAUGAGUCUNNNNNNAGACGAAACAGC

# Variants of: B1
# Protocol: FACS-Seq fitted mean relative fluorescence mCherry/BFP with ligand (log10 relative fluorescence); HEK293T overexpressing SLC46A1; ligand concentration (+) FACS-Seq: 6 mM; higher = higher reporter protein expression
# Conditions: with (6R,S)-folinic acid; ligand present: yes
Decision: FACS-Seq fitted mean (log10) compared against 0.4; not below it gives condition met, below it gives condition not met.

Sequence Variant | Answer Label
GACGAU | condition met
AAAACA | condition not met
AGGGAC | condition not met
CUCGCA | condition met
GAUUAU | condition not met
ACAGGU | condition met
AGGUGG | condition met
GGUUGC | condition not met
AUCGGA | condition not met
AACGUU | condition not met
AGUCAA | condition not met
ACAAAC | condition met
GAUGCG | condition met
UGUGCU | condition met
AACCUU | condition met
GUUCGC | condition not met
AGGUGA | condition met
GUGUAC | condition not met
UUCAGG | condition met
UUUUAG | condition met
UUUGCA | condition not met
